- measured.target: VEGFR-2 (human, UniProt P35968 20-1356)
- Sequence (P35968 20-1356): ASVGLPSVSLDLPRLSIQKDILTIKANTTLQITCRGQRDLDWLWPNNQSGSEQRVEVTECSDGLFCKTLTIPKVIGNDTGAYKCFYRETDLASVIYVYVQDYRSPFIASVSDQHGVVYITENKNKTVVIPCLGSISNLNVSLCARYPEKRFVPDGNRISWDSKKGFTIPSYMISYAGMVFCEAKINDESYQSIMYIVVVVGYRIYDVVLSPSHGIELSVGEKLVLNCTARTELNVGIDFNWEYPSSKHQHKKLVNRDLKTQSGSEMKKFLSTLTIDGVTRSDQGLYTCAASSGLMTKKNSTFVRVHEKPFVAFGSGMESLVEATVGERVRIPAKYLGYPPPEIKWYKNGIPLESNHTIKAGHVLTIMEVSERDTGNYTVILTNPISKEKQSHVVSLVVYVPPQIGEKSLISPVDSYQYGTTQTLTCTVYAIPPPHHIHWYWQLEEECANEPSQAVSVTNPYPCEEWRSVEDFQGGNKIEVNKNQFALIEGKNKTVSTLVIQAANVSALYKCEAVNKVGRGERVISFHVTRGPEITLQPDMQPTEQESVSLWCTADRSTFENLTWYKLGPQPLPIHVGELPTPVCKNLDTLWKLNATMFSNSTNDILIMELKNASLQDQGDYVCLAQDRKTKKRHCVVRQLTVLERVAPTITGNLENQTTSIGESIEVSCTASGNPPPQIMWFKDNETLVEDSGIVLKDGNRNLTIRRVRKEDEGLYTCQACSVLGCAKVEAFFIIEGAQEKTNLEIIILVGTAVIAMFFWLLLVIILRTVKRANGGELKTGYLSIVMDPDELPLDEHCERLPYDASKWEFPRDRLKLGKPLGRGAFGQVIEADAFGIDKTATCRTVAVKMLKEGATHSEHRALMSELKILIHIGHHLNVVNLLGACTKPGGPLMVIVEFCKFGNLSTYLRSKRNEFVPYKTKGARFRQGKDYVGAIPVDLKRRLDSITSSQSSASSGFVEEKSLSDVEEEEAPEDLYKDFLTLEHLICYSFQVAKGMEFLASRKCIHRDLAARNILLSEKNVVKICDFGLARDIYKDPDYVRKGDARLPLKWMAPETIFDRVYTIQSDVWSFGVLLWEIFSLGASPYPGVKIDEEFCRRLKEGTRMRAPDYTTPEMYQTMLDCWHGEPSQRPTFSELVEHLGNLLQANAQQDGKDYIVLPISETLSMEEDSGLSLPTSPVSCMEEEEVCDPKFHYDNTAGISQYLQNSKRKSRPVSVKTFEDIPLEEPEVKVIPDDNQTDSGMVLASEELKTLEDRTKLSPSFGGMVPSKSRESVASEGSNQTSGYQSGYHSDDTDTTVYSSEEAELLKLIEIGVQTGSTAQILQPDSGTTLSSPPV
- test.summary: cell-based or functional assay
*1 amine or outer side, *2 acyl side, *3 side chain or, on linkers, in order; H or OH if unused. Bridges are numbered along the chain shown (N, C = ends). Primed or numbered codes have the meaning given here. Where no end group is shown, it is not given here. [ ]: non-standard residue; d: D form. CO(CH2CH2O)9CH2CH2CO = O=C(CCOCCOCCOCCOCCOCCOCCOCCOCCOCCC(=O)[*:2])[*:1]; hTyr = N[C@@H](CCc1ccc(O)cc1)C(=O)O; Chg = N[C@H](C(=O)O)C1CCCCC1; Tle = CC(C)(C)[C@H](N)C(=O)O; Ahp′ = not defined here
property.label: proliferation (HUVEC, CellTiter-Glo)

binder: {CH2CO}-WWVDVK(CO(CH2CH2O)9CH2CH2CO)DDLYFVDCG-NH2 (thioether N-14; also: dimer: Lys6 joined to Lys6 of second copy by cPEG9c) [Peptide complex Dimer Structure No. 13]
experimental.value: < 50 % activity at 100 nM

GET /value?item= {CH2CO}-WW[Tle]DVKDDLY[F4G]VDCG-NH2 (thioether N-14; also: homodimer: Lys6 joined to Lys6 of second copy by cPEG17c (Linker Structure No. 4)) [Peptide complex Dimer Structure No. 43] &field=proliferation (HUVEC, CellTiter-Glo) returns ≥ 50 % activity at 5 nM

GET /value?item= {CH2CO}-WW[Tle]DVKNDLYF[hTyr]DCG-NH2 (thioether N-14; also: homodimer: Lys6 joined to Lys6 of second copy by cPEG17c (Linker Structure No. 4)) [Peptide complex Dimer Structure No. 47] &field=proliferation (HUVEC, CellTiter-Glo) returns ≥ 50 % activity at 1.25 nM

GET /value?item= {CH2CO}-[W7N]W[Tle]DVKDDLYF[hTyr]DCG-NH2 (thioether N-14; also: homodimer: Lys6 joined to Lys6 of second copy by cPEG17c (Linker Structure No. 4)) [Peptide complex Dimer Structure No. 46] &field=proliferation (HUVEC, CellTiter-Glo) returns ≥ 50 % activity at 1.25 nM

GET /value?item= {CH2CO}-WWVDV[Ahp′]DDLYFVDCG (thioether N-14; reading uncertain; also: dimer joined at Gly15 C-termini by PEG12c-K-PEG12c) [Peptide complex Dimer Structure No. 2] &field=proliferation (HUVEC, CellTiter-Glo) returns < 50 % activity at 100 nM

GET /value?item= {CH2CO}-WW[Chg]DVKDDLYF[hTyr]DCG-NH2 (thioether N-14; not fully specified (residue 6); also: homodimer: Lys6 joined to Lys6 of second copy by cPEG17c (Linker Structure No. 4)) [Peptide complex Dimer Structure No. 25] &field=proliferation (HUVEC, CellTiter-Glo) returns ≥ 50 % activity at 10 nM

GET /value?item= {CH2CO}-WWVDVKDDLYFVDCG-NH2 (thioether N-14; not fully specified (residue 6); also: homodimer: Lys6 joined to Lys6 of second copy by cPEG13c (Linker Structure No. 3)) [Peptide complex Dimer Structure No. 14] &field=proliferation (HUVEC, CellTiter-Glo) returns < 50 % activity at 100 nM
